Hello, the source for this data is patent US20150368338A1, in case you need it.

Listing of entries alongside the reported IC50, ISRE assay.
- TARGET_SYSTEM: T1, IFN-αF (human, UniProt P01568 24-189)
- T1 chain: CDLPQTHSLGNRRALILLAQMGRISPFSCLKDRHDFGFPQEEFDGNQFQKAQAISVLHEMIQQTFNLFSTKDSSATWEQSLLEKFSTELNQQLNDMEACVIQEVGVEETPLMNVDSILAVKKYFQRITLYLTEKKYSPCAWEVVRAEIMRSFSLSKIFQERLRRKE
- EXPERIMENT_DESCRIPTION: cell-based or functional assay
PROPERTY: IC50, ISRE assay (nM)

IFWM3308 (antibody, IgG1, V domains shown) VH: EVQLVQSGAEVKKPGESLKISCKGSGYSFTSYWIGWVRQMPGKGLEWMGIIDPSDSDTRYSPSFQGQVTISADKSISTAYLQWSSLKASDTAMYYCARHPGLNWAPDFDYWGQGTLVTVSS VL: DIQMTQSPSSLSASVGDRVTITCRASQSIAEFLNWYQQKPGKAPKLLIYFASSLQSGVPSRFSGSGSGTDFTLTISSLQPEDFATYYCQQSIDFPLTFGQGTKVEIK: 0.155
IFWM3307 (antibody, IgG1, V domains shown) VH: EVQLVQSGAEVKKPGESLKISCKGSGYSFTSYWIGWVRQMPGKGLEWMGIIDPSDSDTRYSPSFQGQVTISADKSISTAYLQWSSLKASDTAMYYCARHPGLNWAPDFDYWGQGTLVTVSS VL: DIQMTQSPSSLSASVGDRVTITCRASQSIGDFLNWYQQKPGKAPKLLIYFASSLQSGVPSRFSGSGSGTDFTLTISSLQPEDFATYYCQQALDFPLTFGQGTKVEIK: 0.17
IFWM3405 (antibody, IgG1, V domains shown, mAb; IgG1/kappa said of the parent and of selected mAbs; also called IFWB3140) VH: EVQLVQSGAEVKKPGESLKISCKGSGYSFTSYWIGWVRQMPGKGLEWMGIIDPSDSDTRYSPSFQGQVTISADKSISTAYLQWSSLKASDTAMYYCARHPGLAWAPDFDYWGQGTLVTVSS VL: DIQMTQSPSSLSASVGDRVTITCRASQSIANNNLNWYQQKPGKAPKLLIHWASSLQSGVPSRFSGSGSGTDFTLTISSLQPEDFATYYCQQGYDTPFTFGQGTKVEIK: 0.035
IFWM3332 (antibody, IgG1, V domains shown) VH: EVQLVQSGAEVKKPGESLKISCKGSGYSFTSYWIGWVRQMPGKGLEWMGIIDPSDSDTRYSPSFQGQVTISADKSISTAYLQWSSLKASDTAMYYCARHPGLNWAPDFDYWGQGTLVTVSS VL: DIQMTQSPSSLSASVGDRVTITCRASQSIANTNLNWYQQKPGKAPKLLIHWASSLQSGVPSRFSGSGSGTDFTLTISSLQPEDFATYYCQQWYDNPLTFGQGTKVEIK: 0.228
IFWM3331 (antibody, IgG1, V domains shown) VH: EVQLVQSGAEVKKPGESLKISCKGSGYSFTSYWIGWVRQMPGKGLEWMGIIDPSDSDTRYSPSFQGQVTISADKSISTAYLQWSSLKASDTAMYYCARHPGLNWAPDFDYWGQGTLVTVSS VL: DIQMTQSPSSLSASVGDRVTITCRASQSIDNSYLNWYQQKPGKAPKLLIYGASSLQSGVPSRFSGSGSGTDFTLTISSLQPEDFATYYCQQGWDWPLTFGQGTKVEIK: 0.048
